// provenance: PubChem BioAssay (NCI)

Measured growth of individual entries
System: IGROV1 ovarian
Experiment: NCI-60 one-dose screen, 48 h (100 = growth as untreated, 0 = no growth, -100 = all killed)
Conditions: 10 µM unless noted
This is part of a sample that, as a whole, favours compounds with a hit. Of some 83,000 tested, about 20% had one in any assay.

[
  {
    "compound": "Cc1ccc(NS(=O)(=O)c2ccc(-c3cnc(C4CC4)o3)cc2)cc1",
    "experimental_target": "IGROV1 ovarian",
    "growth / %": 39.8
  },
  {
    "compound": "N#Cc1c(O)c2c(c(O)c1C#N)C(=O)c1ccccc1C2=O",
    "experimental_target": "IGROV1 ovarian",
    "growth / %": 23.9
  },
  {
    "compound": "COc1ccc(S(=O)(=O)c2ccc(C(N)=O)cc2)cc1NC(=O)c1[nH]c(C)c2c1CCCCC2=O",
    "experimental_target": "IGROV1 ovarian",
    "growth / %": 64.9
  },
  {
    "compound": "Nc1cccc2c(=S)c3ccccc3[nH]c12",
    "experimental_target": "IGROV1 ovarian",
    "growth / %": 86.9
  },
  {
    "compound": "Nc1cc2[nH]c(=O)c3ccccc3c2cc1Br",
    "experimental_target": "IGROV1 ovarian",
    "growth / %": 59.6
  },
  {
    "compound": "O=C1C(Cl)=C(NCCCN2CCOCC2)C(=O)c2ccccc21",
    "experimental_target": "IGROV1 ovarian",
    "growth / %": 56.4
  },
  {
    "compound": "COc1ccc(Nc2nc(NCCNc3ccnc4cc(Cl)ccc34)nc(N3CCOCC3)n2)cc1",
    "experimental_target": "IGROV1 ovarian",
    "growth / %": 72.8
  },
  {
    "compound": "COc1ccc(-c2cc(=O)oc3c4c(ccc23)OCN(Cc2ccc(F)cc2)C4)cc1",
    "experimental_target": "IGROV1 ovarian",
    "growth / %": 64.5
  },
  {
    "compound": "O=S(=O)(Nc1ccc(Cl)c(Cl)c1)c1ccc(-c2cnc(C3CC3)o2)cc1",
    "experimental_target": "IGROV1 ovarian",
    "growth / %": 27
  },
  {
    "compound": "CC(=O)N(CC(O)CO)c1c(I)c(C(=O)NCCO)c(I)c(C(=O)NCC(O)CO)c1I (stereo not given)",
    "experimental_target": "IGROV1 ovarian",
    "growth / %": 103
  }
]

====

Let's look at some molecules and their measured growth.
Tested on: UACC-62 melanoma
Test: NCI-60 one-dose screen, 48 h (100 = growth as untreated, 0 = no growth, -100 = all killed)
Conditions: 10 µM unless noted
This is part of a sample that, as a whole, favours compounds with a hit. Of some 83,000 tested, about 20% had one in any assay.

[
  {
    "molecule": "O=C(O)C[C@H](O)C[C@H](O)/C=C/c1c(C2CC2)nc2ccccc2c1-c1ccc(F)cc1",
    "growth (%)": 19.5
  },
  {
    "molecule": "COc1cccc(C2C3=C(COC3=O)N(CCO)c3cc4c(cc32)CCC4)c1 (stereo not given)",
    "growth (%)": 8.14
  },
  {
    "molecule": "COc1ccc(/C=N/OCC(O)CN2CCC(O)CC2)cc1OC1CCCC1 (stereo not given)",
    "growth (%)": 103
  },
  {
    "molecule": "Cc1nn2c(-c3nc4ccc(Cl)cc4[nH]3)c(-c3ccc(F)cc3)nc2s1",
    "growth (%)": 91.6
  },
  {
    "molecule": "O=C1c2[nH]cc(CN[C@@H]3CCCN3)c2C(=O)c2c1c(O)c1ccccc1c2O",
    "growth (%)": -100
  }
]

====

Tested on: MCF7 breast
Assay: NCI-60 one-dose screen, 48 h (100 = growth as untreated, 0 = no growth, -100 = all killed)
Conditions: 10 µM unless noted
Method: Growth inhibition of the MCF7 human tumor cell line is measured as a screen for anti-cancer activity. Cells are grown in 96 well plates and exposed to the test compound for 48 hours. Compounds are tested at a single concentration, which is 10^-5 M for most compounds. The reported endpoint is percent growth (GI% or GIPRCNT), where numbers from 0 - 100% represent growth inhibition, and numbers from -100% - 0 represent cell death. For example, a value of 40 represents 60% growth inhibition. […]
The panel holds about 83,000 compounds, 20% with a hit somewhere; the sample as a whole holds those more often.

[
  {
    "compound": "O=C1C2CC3C(CC2C(=O)[N]1[Sn]([c]1ccccc1)([c]1ccccc1)[c]1ccccc1)C1(Cl)C(Cl)=C(Cl)C3(Cl)C1(Cl)Cl (stereo not given)",
    "experimental_target": "MCF7 breast",
    "units_label": "%",
    "growth": -64.7
  },
  {
    "compound": "CCCCCCCCCCCC(=O)[O][Sn]([CH2]CCC)([CH2]CCC)[CH2]CCC",
    "experimental_target": "MCF7 breast",
    "units_label": "%",
    "growth": -88.2
  },
  {
    "compound": "CCOC(=O)c1cnn(CC(O)c2ccc(F)cc2)c1NC(=O)Nc1ccccc1F (stereo not given)",
    "experimental_target": "MCF7 breast",
    "units_label": "%",
    "growth": 93.1
  },
  {
    "compound": "O=C1NC(=O)C2(CCCC2C(=O)O)N1 (stereo not given)",
    "experimental_target": "MCF7 breast",
    "units_label": "%",
    "growth": 96.2
  },
  {
    "compound": "Cc1nn2c(-c3nc4ccc(Cl)cc4[nH]3)c(-c3ccc(F)cc3)nc2s1",
    "experimental_target": "MCF7 breast",
    "units_label": "%",
    "growth": 81.2
  },
  {
    "compound": "Cc1ccc2c(c1)c(Sc1ccc(C(=O)NO)cc1)c1n2CN(C)CC1",
    "experimental_target": "MCF7 breast",
    "units_label": "%",
    "growth": 16.6
  },
  {
    "compound": "O=C(O)c1ccccc1Oc1cc(-c2ccco2)nc(OCCBr)n1",
    "experimental_target": "MCF7 breast",
    "units_label": "%",
    "growth": 101
  },
  {
    "compound": "COc1ccc(/C=C(\\C#N)c2cc3ccccc3n2C)cc1",
    "experimental_target": "MCF7 breast",
    "units_label": "%",
    "growth": 15.4
  },
  {
    "compound": "COc1cc2cc(Oc3ccc(NC(=O)Nc4ccc(Cl)c(C(F)(F)F)c4)cc3)c(C)nc2cc1OCCN1CCCCC1",
    "experimental_target": "MCF7 breast",
    "units_label": "%",
    "growth": -85.9
  },
  {
    "compound": "O=C(c1ccccc1)C(Br)C(Br)c1cccc([N+](=O)[O-])c1 (stereo not given)",
    "experimental_target": "MCF7 breast",
    "units_label": "%",
    "growth": 24.8
  }
]

====

Tested on: SK-MEL-2 melanoma
Assay: NCI-60 one-dose screen, 48 h (100 = growth as untreated, 0 = no growth, -100 = all killed)
Details: 10 µM unless noted
About 83,000 compounds went through this panel and 20% of them were active in at least one assay; those are over-represented in the sample as a whole.

[
  {
    "compound": "COc1ccc(-c2csc3c2-n2cccc2C3=O)cc1O",
    "growth / %": 26.9
  },
  {
    "compound": "COc1cc(/C=C/C(=O)C2=C(/C=C/c3ccc(O)c(OC)c3)NC(=O)NC2c2ccc(O)c(OC)c2)ccc1O (stereo unspecified)",
    "growth / %": 105
  },
  {
    "compound": "O=C1/C(=C/c2ccc(F)cc2)CN(Cc2cn(CCNc3ccnc4cc(Cl)ccc34)nn2)C/C1=C\\c1ccc(F)cc1",
    "growth / %": -63.7
  },
  {
    "compound": "O=C1CC(c2ccsc2)c2snc(-c3ccc(Cl)cc3)c2N1 (stereo unspecified)",
    "growth / %": 27.3
  },
  {
    "compound": "CC1=C(C/C=C(\\C)CCC[C@H](C)CCC[C@H](C)CCCC(C)C)C(=O)c2ccccc2C1=O",
    "growth / %": 114
  },
  {
    "compound": "COc1ccc(-n2ncc3c2ccc2cc(S(=O)(=O)c4ccccc4)c(=O)n(C)c23)cc1",
    "growth / %": 96.3
  },
  {
    "compound": "COc1nc2c(cc1S(=O)(=O)c1ccccc1)CCc1c-2cnn1-c1cccc(Cl)c1",
    "growth / %": 88.9
  },
  {
    "compound": "CCN(c1ccc(C(=O)N2CCN(c3ccccc3)CC2)cc1)S(C)(=O)=O",
    "growth / %": 100
  },
  {
    "compound": "NC(=O)c1cc(I)ccc1NC(=O)COc1ccccc1",
    "growth / %": 34.5
  },
  {
    "compound": "CCOC(=O)c1c(Cl)c2c(n1Cc1ccc(OC)cc1)-c1oncc1CCC2",
    "growth / %": 103
  },
  {
    "compound": "CC1SC(c2cccc(Oc3ccccc3)c2)N(CCc2cccs2)C1=O (stereo unspecified)",
    "growth / %": -75.7
  },
  {
    "compound": "CCOC(=O)c1cnn(CC(O)c2ccc(F)cc2)c1NC(=O)Nc1ccccc1F (stereo unspecified)",
    "growth / %": 111
  },
  {
    "compound": "Cc1nc(NC(=O)COc2cccc(/C=C3\\COc4ccccc4C3=O)c2)sc1C",
    "growth / %": -77
  },
  {
    "compound": "O=C(COc1ccc(/C=C2\\CSc3ccccc3C2=O)cc1)c1ccc(Cl)cc1",
    "growth / %": 95.1
  },
  {
    "compound": "COc1cc(-c2nc(SC(C)C)nc(Nc3cccc(C)c3)c2C#N)cc(OC)c1OC",
    "growth / %": 118
  },
  {
    "compound": "COC(=O)c1c2c(c(C)[n+]([O-])c1C)C(=O)C(NCc1ccc(O)cc1)=CC2=O",
    "growth / %": -12.5
  },
  {
    "compound": "O=C1Nc2ccc(Cl)cc2/C1=N/N=C(c1ccccc1)c1ccccc1",
    "growth / %": 103
  },
  {
    "compound": "CCCCc1ccc(C(O)(CCN2CC3CCC(CC3)C2)c2ccccc2)cc1 (stereo unspecified)",
    "growth / %": 98
  },
  {
    "compound": "O=C1C(Br)=C(c2ccccc2)C(=O)C(Br)=C1c1ccccc1",
    "growth / %": 99.6
  },
  {
    "compound": "COc1cc2nc(N3CCC[C@H](NC4=CC(=O)c5ccccc5C4=O)C3)nc(N)c2cc1OC",
    "growth / %": 111
  },
  {
    "compound": "O=C(O)CCN1CCN(c2cccc(Cl)c2)CC1",
    "growth / %": 107
  }
]
